Test system: VchCAST RNA-guided transposition machinery (E. coli BL21(DE3) host, lacZ target)
Assay name: relative integration efficiency (T-RL orientation) vs wild-type transposon end (log2 (normalized fold change)); transposon end mutated: right end (5 bp flank + 75 bp right end); higher = more efficient transposition
Measured quantity: relative integration efficiency (log2)
Answer with the value's number alone.

stdin: Missing value: relative integration efficiency (log2), VchCAST RNA-guided transposition machinery (E. coli BL21(DE3) host, lacZ target), entry "ACATTTGTTGATACCCCCATAAAATGATAATTACACCCATAAATTGATAATTATCACACCCATAAATTGATATTGCCTCTGATCATAGTCAGACCAACATTGCTACGACCCGTATTCGCACCGACAC" . Fill in?
stdout: -0.828

stdin: Missing value: relative integration efficiency (log2), VchCAST RNA-guided transposition machinery (E. coli BL21(DE3) host, lacZ target), entry "ACATTTGTTGATACAACCATAAAATCATCATTCACCCCTAAATTGATAATTATCACACCCACATTTAACTATAACGCTCTGATCATAGTCAGACCAACATTGCTACGACCCGTATTCGCACCGACAC" . Fill in?
stdout: -5.66

stdin: Missing value: relative integration efficiency (log2), VchCAST RNA-guided transposition machinery (E. coli BL21(DE3) host, lacZ target), entry "ACATTTGTTGATACCACCATCAAATGATAATTACACCCCTACATTGATAATTATCACACCCAATTTAACTATAACGCTCTGATCATAGTCAGACCAACATTGCTACGACCCGTATTCGCACCGACAC" . Fill in?
stdout: -5.58

stdin: Missing value: relative integration efficiency (log2), VchCAST RNA-guided transposition machinery (E. coli BL21(DE3) host, lacZ target), entry "ACATTTGTTGATACAACCTATTAATGATAATTACACCCATAAATTGATAATTATCACACCCATAAATTGATATTGCCTCTGATCATAGTCAGACCAACATTGCTACGACCCGTATTCGCACCGACAC" . Fill in?
stdout: -0.905

stdin: Missing value: relative integration efficiency (log2), VchCAST RNA-guided transposition machinery (E. coli BL21(DE3) host, lacZ target), entry "ACATTTGTTGATACAACCATAAAATGATAATTACAACCATAAGTTGATATTTTTCACACCCATAAATTGATATTGCCTCTGATCATAGTCAGACCAACATTGCTACGACCCGTATTCGCACCGACAC" . Fill in?
stdout: -0.349

stdin: Missing value: relative integration efficiency (log2), VchCAST RNA-guided transposition machinery (E. coli BL21(DE3) host, lacZ target), entry "ACATTTGTTGATACAACCATAAAATCATCATTACCCCCATAAATTGATAATTATCACACCCCATTTAACTATAACGCTCTGATCATAGTCAGACCAACATTGCTACGACCCGTATTCGCACCGACAC" . Fill in?
stdout: -3.71

stdin: Missing value: relative integration efficiency (log2), VchCAST RNA-guided transposition machinery (E. coli BL21(DE3) host, lacZ target), entry "ACATTTGTTGATACAACCATAAGTTGATATTTTCAACCATAAGTTGATATTTTTCACAACCATAAGTTGATATTTTCTCTGATCATAGTCAGACCAACATTGCTACGACCCGTATTCGCACCGACAC" . Fill in?
stdout: 0.214

stdin: Missing value: relative integration efficiency (log2), VchCAST RNA-guided transposition machinery (E. coli BL21(DE3) host, lacZ target), entry "ACATTTGTTGATACAACCATAAGTTGATATTTTCAACCATAAAGTGATATTTATCAGTGGGTATTTAACTATAACGCTCTGATCATAGTCAGACCAACATTGCTACGACCCGTATTCGCACCGACAC" . Fill in?
stdout: -0.687

stdin: Missing value: relative integration efficiency (log2), VchCAST RNA-guided transposition machinery (E. coli BL21(DE3) host, lacZ target), entry "ACATTTGTTGATACAACCATAAAAGGATCATTACCCCCATCAATTGATAATTATCACACCCCATTTAACTATAACGCTCTGATCATAGTCAGACCAACATTGCTACGACCCGTATTCGCACCGACAC" . Fill in?
stdout: -4.59

stdin: Missing value: relative integration efficiency (log2), VchCAST RNA-guided transposition machinery (E. coli BL21(DE3) host, lacZ target), entry "ACATTTGTTGATACAACCATAAAACGATAATTACACCCATAAATTCATCATTATCACACCCAATTTAACTATAACGCTCTGATCATAGTCAGACCAACATTGCTACGACCCGTATTCGCACCGACAC" . Fill in?
stdout: -2.21

stdin: Missing value: relative integration efficiency (log2), VchCAST RNA-guided transposition machinery (E. coli BL21(DE3) host, lacZ target), entry "ACATTTGTTGATACAACCATAAAATGTATTAATCACCCATAAATTGTATTAATTCACACCCATAAATTGTATAACGCTCTGATCATAGTCAGACCAACATTGCTACGACCCGTATTCGCACCGACAC" . Fill in?
stdout: -4.24

stdin: Missing value: relative integration efficiency (log2), VchCAST RNA-guided transposition machinery (E. coli BL21(DE3) host, lacZ target), entry "ACATTTGTTGATACAACCATTAAATGGTAATTCCACCCATATATTGATAATTATCACACCCAATTTAACTATAACGCTCTGATCATAGTCAGACCAACATTGCTACGACCCGTATTCGCACCGACAC" . Fill in?
stdout: -1.52

stdin: Missing value: relative integration efficiency (log2), VchCAST RNA-guided transposition machinery (E. coli BL21(DE3) host, lacZ target), entry "ACATTTGTTGATACAACCATAAAATGATAATTACAACCATATATTGATATCTCTCACAACCATAAAGTGATATTTACTCTGATCATAGTCAGACCAACATTGCTACGACCCGTATTCGCACCGACAC" . Fill in?
stdout: -0.5

stdin: Missing value: relative integration efficiency (log2), VchCAST RNA-guided transposition machinery (E. coli BL21(DE3) host, lacZ target), entry "ACATTTGTTGATACAACCATAAAATCATAATTACCCCCATCAATTGATAATTATCACACCCCATTTAACTATAACGCTCTGATCATAGTCAGACCAACATTGCTACGACCCGTATTCGCACCGACAC" . Fill in?
stdout: -5.34

stdin: Missing value: relative integration efficiency (log2), VchCAST RNA-guided transposition machinery (E. coli BL21(DE3) host, lacZ target), entry "ACATTTGTCGATACAACCATAAAATGATAATTACACCCATAAATGGATCATTATCACACCCAATTTAACTATAACGCTCTGATCATAGTCAGACCAACATTGCTACGACCCGTATTCGCACCGACAC" . Fill in?
stdout: -1.61

stdin: Missing value: relative integration efficiency (log2), VchCAST RNA-guided transposition machinery (E. coli BL21(DE3) host, lacZ target), entry "ACATTTGTTGATACAACCATCAAATGATAATTCCACCCCTACATTGATAATTATCACACCCAATTTAACTATAACGCTCTGATCATAGTCAGACCAACATTGCTACGACCCGTATTCGCACCGACAC" . Fill in?
stdout: -4.18

stdin: Missing value: relative integration efficiency (log2), VchCAST RNA-guided transposition machinery (E. coli BL21(DE3) host, lacZ target), entry "ACATTTGTTGATACACCCATAAATTGATAATTACAACCATAAGTTGATATTTTTCACAACCATATATTGATATCTCCTCTGATCATAGTCAGACCAACATTGCTACGACCCGTATTCGCACCGACAC" . Fill in?
stdout: -0.626

stdin: Missing value: relative integration efficiency (log2), VchCAST RNA-guided transposition machinery (E. coli BL21(DE3) host, lacZ target), entry "ACATTTGTTGATACAACCATAAAATGATAATTACACCCATAAATCTGAAATTATCACACCCATAAATTGATATTGCCTCTGATCATAGTCAGACCAACATTGCTACGACCCGTATTCGCACCGACAC" . Fill in?
stdout: -0.888

stdin: Missing value: relative integration efficiency (log2), VchCAST RNA-guided transposition machinery (E. coli BL21(DE3) host, lacZ target), entry "ACATTTGTTGATACAACCATAAAATGATAATTACACCCATAAATTGATAATTAGAACACCCATAAATTGATATTGCCTCTGATCATAGTCAGACCAACATTGCTACGACCCGTATTCGCACCGACAC" . Fill in?
stdout: -0.195

stdin: Missing value: relative integration efficiency (log2), VchCAST RNA-guided transposition machinery (E. coli BL21(DE3) host, lacZ target), entry "ACATTTGTTGATACAACCATAAAATGATAATTACTCTGATCATAGTCAGACCAACATTGCTACGACCCGTATTCGCACCGACACACCCATAAATTGATAATTATCACACCCATAAATTGATATTGCC" . Fill in?
stdout: -2.59
